These entries and their values trace back to the supplement of paper PMC7125110.

B1: glmS ribozyme (parent)
chain: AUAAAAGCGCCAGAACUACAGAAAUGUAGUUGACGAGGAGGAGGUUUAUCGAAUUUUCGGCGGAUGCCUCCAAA

variants of: B1; test: self-cleavage kobs at 2500 uM GlcN6P; higher = faster cleavage; RNA array; details: with glucosamine-6-phosphate
This sample holds only a part of the variants without activity.
assay.endpoint: self-cleavage kobs at 2500 uM GlcN6P

Measured self-cleavage kobs at 2500 uM GlcN6P of UGGAUCCAUAAAGAACUACAGAAAUGUAGUUGACGAGGAGGAGGUUUAUCGAAUUUUCGGCGGAUGCCUCCAAA [A1U U2G A3G A5U A6C G7C C8A G9U C10A C11A] : < 1e-05 s⁻¹

Measured self-cleavage kobs at 2500 uM GlcN6P of AUAAAAGCUCCGGAACUACAGAAAUGUAGUUGACGAGGAGGAGGUUUAUCGAAUUUUCGGAGGAUGCCUCCAAA [G9U A12G C61A] : 8.52e-05 s⁻¹

Measured self-cleavage kobs at 2500 uM GlcN6P of AUAAAAGCGCGAGAACUACAGAAAUGUAGUUGACGAGGCGGAGGUUUAUCGAAUUUUCGGCGGAUGCCUCCAAA [C11G A39C] : < 1e-05 s⁻¹

Measured self-cleavage kobs at 2500 uM GlcN6P of AUAAAAGCGCCGGAACUACAGAAAUGUAGUUGACGAGGAGGAGGCUUAUCGAAUUUUCGGCGGAUGCCUCCAAA [A12G U45C] : 3.29e-05 s⁻¹

Measured self-cleavage kobs at 2500 uM GlcN6P of AUAAAAGCGCCAGAACUACAGAAAUGUAGUUGACGAGGAGGAGGUUUAUGGAAUUUUCGGCGGAUUCCUCCAAA [C50G G66U] : 0.000123 s⁻¹

Measured self-cleavage kobs at 2500 uM GlcN6P of AUAAAAACGCCAGAACUACAGAAAUGUAGUUGACGAGGAGGAGGUUUAUCGUAUUUUCGGCGGGUGCCUCAAAA [G7A A52U A64G C71A] : < 1e-05 s⁻¹

Measured self-cleavage kobs at 2500 uM GlcN6P of AUAAAAGCGCCAGAACUACAGAAAUGUAGUUGAUGAGGCGGAGGUUUAUCGAAUUUUCGGCGGAUGCUUCCAAA [C34U A39C C68U] : < 1e-05 s⁻¹

Measured self-cleavage kobs at 2500 uM GlcN6P of AUAAAAGCGCCGGAACUACAGAAAUGUAGUUGACGAGGAGGAGGUUUAUCGAAUUUACGUCGGAUGCCUCCAAA [A12G U57A G60U] : < 1e-05 s⁻¹
